assay: In vivo pharmacokinetics in ICR mice
Parameters: species or system mouse
experimentalSetup: male, ICR, mouse, plasma, po, 3 mg/kg
recordedMetric: half-life (h)

1. Cc1ccc(C(CC(=O)O)c2cc(OCCCCCCCCNc3cccc4c3C(=O)N(C3CCC(=O)NC3=O)C4=O)c3c(c2)nnn3C)cc1CN1C[C@@H](C)Oc2ccccc2S1(=O)=O (stereo partly shown) [SD2267]	12.3

====

Measured Ki values are reported for all entries that follow.
targetOfAssay: Mutant Magnetospirillum gryphiswaldense cereblon isoform 4 (MsCI4^WW/FF) (Magnetospirillum gryphiswaldense, UniProt A4TVL0, W36F/W59F)
Sequence (A4TVL0 1-124 W36F/W59F): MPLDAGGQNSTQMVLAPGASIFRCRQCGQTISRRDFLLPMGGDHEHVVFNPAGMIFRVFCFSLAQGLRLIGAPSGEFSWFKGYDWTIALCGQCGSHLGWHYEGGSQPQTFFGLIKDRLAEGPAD
assay: FRET-based competitive binding assay
recordedMetric: Ki (nM)

1) Cc1ccc(C(CC(=O)O)c2cc(OCCCCCCCCNc3ccc4c(c3)C(=O)N(C3CCC(=O)NC3=O)C4=O)c3c(c2)nnn3C)cc1CN1C[C@@H](C)Oc2ccccc2S1(=O)=O (stereo partly drawn)	8150
2) Cc1ccc(C(CC(=O)O)c2cc(OCCCCNc3cccc4c3C(=O)N(C3CCC(=O)NC3=O)C4=O)c3c(c2)nnn3C)cc1CN1C[C@@H](C)Oc2ccccc2S1(=O)=O (stereo partly drawn)	64.8
3) Cc1ccc(C(CC(=O)O)c2cc(OCCCCCCCCNc3cccc4c3C(=O)N(C3CCC(=O)NC3=O)C4=O)c3c(c2)nnn3C)cc1CN1C[C@@H](C)Oc2ccccc2S1(=O)=O (stereo partly drawn)	57.7

====

assay: In vivo pharmacokinetics in ICR mice
Parameters: species or system mouse
experimentalSetup: male, ICR, mouse, plasma, ip, 3 mg/kg
recordedMetric: AUC (ng·h/mL)

1. Cc1ccc(C(CC(=O)O)c2cc(OCCCCCCCCNc3cccc4c3C(=O)N(C3CCC(=O)NC3=O)C4=O)c3c(c2)nnn3C)cc1CN1C[C@@H](C)Oc2ccccc2S1(=O)=O (stereo partly shown)	7800

====

assay: In vivo pharmacokinetics in ICR mice
Parameters: species or system mouse
experimentalSetup: male, ICR, mouse, plasma, ip, 3 mg/kg
recordedMetric: AUC(0-t) (ng·h/mL)

1) Cc1ccc(C(CC(=O)O)c2cc(OCCCCCCCCNc3cccc4c3C(=O)N(C3CCC(=O)NC3=O)C4=O)c3c(c2)nnn3C)cc1CN1C[C@@H](C)Oc2ccccc2S1(=O)=O (stereo partly shown) [SD2267]	7720

====

assay: In vivo pharmacokinetics in ICR mice
Design: species or system mouse
experimentalSetup: male, ICR, mouse, plasma, po, 3 mg/kg
recordedMetric: AUC

1. Cc1ccc(C(CC(=O)O)c2cc(OCCCCCCCCNc3cccc4c3C(=O)N(C3CCC(=O)NC3=O)C4=O)c3c(c2)nnn3C)cc1CN1C[C@@H](C)Oc2ccccc2S1(=O)=O (stereo partly shown)	597 ng·h/mL
